# target_or_test_system: human MIF (Homo sapiens)
# Sequence (P14174 2-115 limits assumed): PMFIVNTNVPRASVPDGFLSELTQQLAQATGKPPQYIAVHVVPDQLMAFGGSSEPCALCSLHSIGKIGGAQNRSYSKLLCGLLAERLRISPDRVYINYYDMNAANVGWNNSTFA
# assay_overview: Competitive fluorescence polarization
# Assay type: binding
# recorded_conditions: 0.004 μM tracer B, […] MIF, pH 7.4; Kd from IC50 via eq 1
assay_readout: pKd
The quantity pKd is defined as the negative base-10 logarithm of the molar concentration.

Looking up Ic1cc(-c2ccccc2)ncn1 [4-IPP] , I found its pKd recorded as 6.35

====

Recorded measurements of Ki, one per entry
# target_or_test_system: human MIF (Homo sapiens)
# unit: nM | format: bare number

>  <smiles_record>
O=C(O)c1ccc(Oc2cn(-c3ccc(O)c(F)c3)nn2)cc1

>  <Ki (nM)>
1700

$$$$
>  <smiles_record>
O=C1Oc2cc(O)ccc2CN1c1ccc(O)cc1

>  <Ki (nM)>
185

$$$$
>  <smiles_record>
COc1ccc(Oc2cn(-c3ccc(O)c(F)c3)nn2)cc1

>  <Ki (nM)>
1900

$$$$

Proceed to the following item.
For "O=C1Oc2cc(O)ccc2CN1C1CCCCC1" on human MIF (Homo sapiens), measured Ki was 569

====

# target_or_test_system: human MIF (Homo sapiens)
# Sequence (P14174 2-115 limits assumed): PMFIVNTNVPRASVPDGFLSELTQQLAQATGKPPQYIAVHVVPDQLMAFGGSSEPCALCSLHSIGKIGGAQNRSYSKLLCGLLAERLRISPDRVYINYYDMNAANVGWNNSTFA
# assay_overview: Competitive fluorescence polarization
# Format: binding
# recorded_conditions: Kd, 0.004 μM tracer B, […] MIF, pH 7.4; Kd from IC50 via eq 1
pKd values, listed per item
Lab note: report pKd as minus log10 of the concentration in molar units, number only.

>  <smiles_record>
O=C1Oc2cc(O)ccc2CN1C1CCCCC1

>  <assay_readout>
pKd

>  <recorded_measurement>
6.34

$$$$

Noted for "O=C1Oc2cc(O)ccc2CN1c1ccc(O)cc1" : its pKd reads 6.80
